# system_under_test: Serine/threonine-protein kinase PAK 6 (Homo sapiens)
# stated_conditions: at 10 µM
measured_endpoint: residual activity (%)
One number for each entry, in %.

O=c1cc(-c2cccc3c2Sc2ccccc2S3)oc(N2CCOCC2)c1
72

For each entry beneath this line, provide reported residual activity.
1. Cc1nc(-c2ccccc2)c(-c2ccncc2)o1
2. Nc1n[nH]c2nnc(-c3c(-c4ccccc4)nn4ccccc34)cc12
3. N#CC(C#N)=C(N)/C(C#N)=C/c1ccc(O)cc1
4. Cc1ccc(S(=O)(=O)/C=C/C#N)cc1

Reply:
1: 90; 2: 99; 3: 87; 4: 84

For each entry beneath this line, provide reported residual activity.
1. CN(C)CCCn1cc(C2=C(c3c[nH]c4ccccc34)C(=O)NC2=O)c2ccccc21
2. Oc1n[nH]c2nnc(-c3c(-c4ccccc4)nn4ccccc34)cc12
3. O=C1NC(=O)/C(=C\c2ccc3nccnc3c2)S1
4. COc1ccc(OC)c2c(=S)c3ccccc3[nH]c12
5. CC#CC(=O)Nc1cc2c(Nc3ccc(F)c(Cl)c3)ncnc2cn1
6. Cc1cc2ncc(-c3ccccc3)nc2cc1C
7. N#Cc1cnc2cnc(NCc3cccnc3)cc2c1Nc1ccc(F)c(Cl)c1

Reply:
[78, 98, 94, 80, 96, 77, 2]
